Reference for the values: the Human Domainome abundance scans (Beltran et al. 2025)

B1: Probable E3 ubiquitin-protein ligase MID2, residues 191 to 235; numbered along this chain, Q9UJV3 (parent)
chain: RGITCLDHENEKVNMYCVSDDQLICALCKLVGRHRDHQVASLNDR

Variants of: B1
assay name: abundance fitness (aPCA) (normalised: wild type 0, dead -1); higher = more abundant; growth selection in yeast, the domain comes from the species named
condition summary: Homo sapiens
abundance fitness values, listed per item

input sequence	abundance fitness
RGITCLDHENEKVNMYCVSDDQLICALCKLVGRHRDHQVASLNDL [R45L]	-0.253
RGITCLDHENEKVNMYCVVDDQLICALCKLVGRHRDHQVASLNDR [S19V]	-0.032
RGITVLDHENEKVNMYCVSDDQLICALCKLVGRHRDHQVASLNDR [C5V]	-0.589
RGITCLDHENEKVNAYCVSDDQLICALCKLVGRHRDHQVASLNDR [M15A]	0.063
RGITCLDHENEKVNMPCVSDDQLICALCKLVGRHRDHQVASLNDR [Y16P]	-0.065
RGITCLDHENEKVNMYCVSDDQLICALCKLVGRHRDHQHASLNDR [V39H]	0.067
RGITCADHENEKVNMYCVSDDQLICALCKLVGRHRDHQVASLNDR [L6A]	0.145
RGITCLDHENEKVNMYCVSLDQLICALCKLVGRHRDHQVASLNDR [D20L]	-1.08
RGSTCLDHENEKVNMYCVSDDQLICALCKLVGRHRDHQVASLNDR [I3S]	-0.081
RGITCLDHENEKGNMYCVSDDQLICALCKLVGRHRDHQVASLNDR [V13G]	-0.143
RGITCLDHENEKVNPYCVSDDQLICALCKLVGRHRDHQVASLNDR [M15P]	-0.251
RGITCLDHENEKVNMYCVSDDQLIQALCKLVGRHRDHQVASLNDR [C25Q]	-1.02
RGITCLDHENEKVNMYNVSDDQLICALCKLVGRHRDHQVASLNDR [C17N]	-0.212
RGITPLDHENEKVNMYCVSDDQLICALCKLVGRHRDHQVASLNDR [C5P]	-0.717
RGITCLDHENGKVNMYCVSDDQLICALCKLVGRHRDHQVASLNDR [E11G]	-0.245
RGITCLDHENEKVNMYCVSDDQLICALCKLVGRHRDHQDASLNDR [V39D]	-0.258
RGITCLDHENEKVNMYCVSDDQLICALCKLVGRVRDHQVASLNDR [H34V]	-0.558
RGITCLDHENEKVNMYKVSDDQLICALCKLVGRHRDHQVASLNDR [C17K]	-0.01
RGITCLDHENEKVNMYCVSDDQLICALCKLVGRHRDHQVQSLNDR [A40Q]	0.09
RGITCLDHENEKVNMYCVSDDQLICALCKLMGRHRDHQVASLNDR [V31M]	-0.104
RGITCLDHENEKVNMYCVSDDQLICALCKLEGRHRDHQVASLNDR [V31E]	0.149
RGITCLDHENEKVNMYCVSDDQLICALCILVGRHRDHQVASLNDR [K29I]	-0.037
RGITCLDHENEKVNMYCVSDDQLICALCKSVGRHRDHQVASLNDR [L30S]	0.189
RGITCLDHENEKVNMYCVSDDQLICALCKLVGRHRDHQVAHLNDR [S41H]	-0.135
RGITSLDHENEKVNMYCVSDDQLICALCKLVGRHRDHQVASLNDR [C5S]	-0.448
RGITCLDHENEKVNMYCVSDDQLICALCKLVGRHRDHQVHSLNDR [A40H]	-0.296
RGITCLDHENEKVNMYCVSDDQLICALTKLVGRHRDHQVASLNDR [C28T]	-0.541
RGITCLDHENEKVNMYCVSDDMLICALCKLVGRHRDHQVASLNDR [Q22M]	0.054
RGITCLDHENEKVNMYCKSDDQLICALCKLVGRHRDHQVASLNDR [V18K]	0.079
RGITCLDHENEKVNMYCVSDDQLICAPCKLVGRHRDHQVASLNDR [L27P]	-0.215
RGITCLDIENEKVNMYCVSDDQLICALCKLVGRHRDHQVASLNDR [H8I]	-0.976
RGITCLDHENEKVNMYCVSDDQLICALCKLVGQHRDHQVASLNDR [R33Q]	-0.006
RGITCMDHENEKVNMYCVSDDQLICALCKLVGRHRDHQVASLNDR [L6M]	0.072
RGITCLDHENEKVNMYCVSDDQLICALWKLVGRHRDHQVASLNDR [C28W]	-0.997
RGITCLDHENEKVNMYCVSDDQLICALCKLVGRHRDHQVASRNDR [L42R]	-0.095
RGIWCLDHENEKVNMYCVSDDQLICALCKLVGRHRDHQVASLNDR [T4W]	-0.219
RGITCLDHENEKVNMYCVSDDQLICALCKLVGPHRDHQVASLNDR [R33P]	0.038
RGITCLDHRNEKVNMYCVSDDQLICALCKLVGRHRDHQVASLNDR [E9R]	-0.024
RGITCLDHCNEKVNMYCVSDDQLICALCKLVGRHRDHQVASLNDR [E9C]	0.028
RGITCLDHANEKVNMYCVSDDQLICALCKLVGRHRDHQVASLNDR [E9A]	0.098
RGITCLDHENEKRNMYCVSDDQLICALCKLVGRHRDHQVASLNDR [V13R]	-0.077
RGITCLDHENEKVNMYCVSDDQLICALCKLWGRHRDHQVASLNDR [V31W]	-0.428
RGITCLDHENEKVNMYCVSDDQLICAKCKLVGRHRDHQVASLNDR [L27K]	0.517
RGITCLDHENEKVNMYCVSDDQLICALCKLVGRKRDHQVASLNDR [H34K]	-0.402
RGITCLDHENEKVNMYCVSDDQLECALCKLVGRHRDHQVASLNDR [I24E]	-0.141
RGITCLDHENEKVNMYCVSDDQLICALCPLVGRHRDHQVASLNDR [K29P]	-0.054
RGITCLDHENEKVNMYCVSDVQLICALCKLVGRHRDHQVASLNDR [D21V]	-0.585
YGITCLDHENEKVNMYCVSDDQLICALCKLVGRHRDHQVASLNDR [R1Y]	-0.807
RGITCLDHENEKVNMYCVSDDQLICALCKLVGRHRDHQVALLNDR [S41L]	-0.157
RGITCLDHENEKVNGYCVSDDQLICALCKLVGRHRDHQVASLNDR [M15G]	0.081
RGITCLDHENEKVNMYCVSCDQLICALCKLVGRHRDHQVASLNDR [D20C]	-0.178
DGITCLDHENEKVNMYCVSDDQLICALCKLVGRHRDHQVASLNDR [R1D]	-0.079
RGITCLDHENEKVKMYCVSDDQLICALCKLVGRHRDHQVASLNDR [N14K]	0.015
RGITCLDHENEKVNMYCVSDDQLICALCKLVGRGRDHQVASLNDR [H34G]	-0.383
RGITCLDHENEGVNMYCVSDDQLICALCKLVGRHRDHQVASLNDR [K12G]	-0.102
RGITCLDHENEKVNMYCVSDDQLIDALCKLVGRHRDHQVASLNDR [C25D]	-0.834
RAITCLDHENEKVNMYCVSDDQLICALCKLVGRHRDHQVASLNDR [G2A]	-0.135
RGIRCLDHENEKVNMYCVSDDQLICALCKLVGRHRDHQVASLNDR [T4R]	-0.205
RGITHLDHENEKVNMYCVSDDQLICALCKLVGRHRDHQVASLNDR [C5H]	-0.555
RGITCLDHENEKVNMYCVSDDQLICALCKLVGRSRDHQVASLNDR [H34S]	-0.387
RGITCLDHENEKVNMYCVRDDQLICALCKLVGRHRDHQVASLNDR [S19R]	-0.041
RGITCLDHENEKVNMYCVSDDQLICALCKLVGRHRDHQVASLRDR [N43R]	-0.154
RGITCLDHENEKVNMYCVSDDQLICALCKLKGRHRDHQVASLNDR [V31K]	0.131
RGITCLDHEQEKVNMYCVSDDQLICALCKLVGRHRDHQVASLNDR [N10Q]	-0.313
RGITCLDHENEKVNMYCNSDDQLICALCKLVGRHRDHQVASLNDR [V18N]	-0.125
RGITCLDHENEKVNMYCVSDDQLICALCKLVGRHRDHQIASLNDR [V39I]	-0.153
RGITCLDHENEKVNMYCVSDDQLICTLCKLVGRHRDHQVASLNDR [A26T]	-0.068
RGITCLDFENEKVNMYCVSDDQLICALCKLVGRHRDHQVASLNDR [H8F]	-0.808
RGITCLDHENAKVNMYCVSDDQLICALCKLVGRHRDHQVASLNDR [E11A]	-0.177
RGITCLDHENEKVNMYCVSDDQLICALCLLVGRHRDHQVASLNDR [K29L]	-0.286
RGITCLDHENEKVNMYCVSDDQLICALCKLVGRHRDHQVASLNDW [R45W]	-0.164
RGITCLDHENEKVNMYCVSDDQLICALCKLVWRHRDHQVASLNDR [G32W]	-0.954
RGITCLDHENEKVNMYCVSDNQLICALCKLVGRHRDHQVASLNDR [D21N]	0.031
RGITCLDHENEKVNMYCVSDDQLICALQKLVGRHRDHQVASLNDR [C28Q]	-0.505
RGITCLDHENEKANMYCVSDDQLICALCKLVGRHRDHQVASLNDR [V13A]	-0.104
RGITCLDHENEKVNMYCVSDDQLICALCKLVGRHRDHQVASLNGR [D44G]	-0.075
RGITCLDHENEKVNMYCVSDDQLICALCKLVGRHRDHQVTSLNDR [A40T]	-0.068
RGITCLDHENEKVNMYCTSDDQLICALCKLVGRHRDHQVASLNDR [V18T]	0.2
RGITCLDHENEKVNMYCVEDDQLICALCKLVGRHRDHQVASLNDR [S19E]	0.07
RGITCLDHENEKVNMYCVSDDQTICALCKLVGRHRDHQVASLNDR [L23T]	-0.046
RGITCLDHENEKVNMYCVSDDQLICALCKLVGRHRDHQLASLNDR [V39L]	-0.079
QGITCLDHENEKVNMYCVSDDQLICALCKLVGRHRDHQVASLNDR [R1Q]	0.069
RGITCLDHENEKVNMYCVWDDQLICALCKLVGRHRDHQVASLNDR [S19W]	-0.211
RGITCLDHENEKVRMYCVSDDQLICALCKLVGRHRDHQVASLNDR [N14R]	-0.087
RGINCLDHENEKVNMYCVSDDQLICALCKLVGRHRDHQVASLNDR [T4N]	-0.01
RGITCLDHENEKVNMGCVSDDQLICALCKLVGRHRDHQVASLNDR [Y16G]	0.024
RGITCLVHENEKVNMYCVSDDQLICALCKLVGRHRDHQVASLNDR [D7V]	-0.17
RGITCLDHENEKVNMYCVSDDQLICALCKLVGRHRDHAVASLNDR [Q38A]	-0.113
RGITCLDHENEKVNMYCVSDDQLICALCKLVGRHRDAQVASLNDR [H37A]	-0.313
RGHTCLDHENEKVNMYCVSDDQLICALCKLVGRHRDHQVASLNDR [I3H]	-0.195
RGITCLDHENEKVNMVCVSDDQLICALCKLVGRHRDHQVASLNDR [Y16V]	0.023
